Tested on: HEK293 (non-expressing parental cells)
Assay: FACS cell surface binding
Quantity Name: FACS Cell Binding (Fold Above Background)
Answer with a number only, understood to be in Fold Above Background.

Look up FACS Cell Binding (Fold Above Background): H1H6790P: anti-PRLR antibody, human IgG1 Fc; HCVR/LCVR SEQ ID NOs 114/122 (antibody, V domains shown, human IgG1 Fc) VH: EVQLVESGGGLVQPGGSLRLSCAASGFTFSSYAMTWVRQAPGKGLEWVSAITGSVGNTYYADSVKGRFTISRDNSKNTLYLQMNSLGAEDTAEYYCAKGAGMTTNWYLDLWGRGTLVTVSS VL: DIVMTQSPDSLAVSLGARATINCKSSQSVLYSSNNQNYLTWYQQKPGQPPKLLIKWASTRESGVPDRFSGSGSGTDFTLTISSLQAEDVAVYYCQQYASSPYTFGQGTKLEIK
1
